Test system: U2OS
assay_text: Multiplex assay against U2OS
Assay type: toxicity, cell-based
cond: human, 12 h, 1 µM, compound concentration 1 uM, replicate 1
Population Mitochondria Different-Phenotype (%) by entry:
property: Population Mitochondria Different-Phenotype (%)

molecule: CC(C)OC(=O)N1CCC(Oc2ncnc3c2cnn3-c2ccc(S(C)(=O)=O)cc2F)CC1
system_under_test: U2OS
reading_unit: %
number: 8

molecule: C=CC(=O)Nc1cccc(Oc2nc(Nc3ccc(N4CCN(C)CC4)cc3OC)ncc2Cl)c1
system_under_test: U2OS
reading_unit: %
number: 74

molecule: C=CC(=O)Nc1cccc(Sc2nc(Nc3ccc(N4CCN(C)CC4)cc3)ncc2Cl)c1
system_under_test: U2OS
reading_unit: %
number: 100

molecule: C=CC(=O)Nc1ccc2[nH]c(=O)n(C3CCN(Cc4ccc(-c5nc6cc[nH]c(=O)c6cc5-c5ccccc5)cc4)CC3)c2c1 [Borussertib]
system_under_test: U2OS
reading_unit: %
number: 35

----------
Tested on: Fibroblast
assay_text: Multiplex assay against human fibroblast
Format: toxicity, cell-based
cond: 24 h, 1 µM, compound concentration 1 uM, replicate 2
property: Population Membrane Permeable-Phenotype (%)

molecule: Cc1ccc2c(c1)c1c(n2CCc2ccc(C)nc2)CCN(C)C1 [LATREPIRDINE]
number: 10
--
molecule: CNC(=O)Nc1ccc2c(c1)[C@@]1(CC2)OC(=O)N(CC(=O)N(Cc2ccc(F)cc2)[C@@H](C)C(F)(F)F)C1=O
number: 50
--
molecule: Cc1cccc(CN2CCN(C(c3ccccc3)c3ccc(Cl)cc3)CC2)c1.Cl.Cl (stereo not drawn)
number: 11
--
molecule: C=CC(=O)Nc1cccc(Sc2nc(Nc3ccc(N4CCN(C)CC4)cc3)ncc2Cl)c1
number: 0
--
molecule: CCCSc1nc(N[C@@H]2C[C@H]2c2ccc(F)c(F)c2)c2nnn([C@@H]3C[C@H](OCCO)[C@@H](O)[C@H]3O)c2n1
number: 4
--
molecule: CCc1nn(CCCN2CCN(c3cccc(Cl)c3)CC2)c(=O)n1CCOc1ccccc1.Cl [NEFAZODONE HYDROCHLORIDE]
number: 1
--
molecule: Cc1nc(N2CC[C@H](O)C2)ncc1-c1cc(C(F)(F)F)cc2[nH]ncc12
number: 30
--
molecule: Cl.O=C(O)c1cc(-c2ccc(C3CCNCC3)cc2)c2ccc(-c3ccc(C(F)(F)F)cc3)cc2c1
number: 4

----------
System: Fibroblast
assay_text: Multiplex assay against human fibroblast
Format: toxicity, cell-based
cond: 24 h, 1 µM, compound concentration 1 uM, replicate 2
So basically: is Population Mitotic Cells (%) under 50%? Then fulfilled. Not under? Then not fulfilled.

compound: C=CC(=O)Nc1cccc(Oc2nc(Nc3ccc(N4CCN(C)CC4)cc3OC)ncc2Cl)c1
label_class: fulfilled
--
compound: O=C(c1cc2c(cc1F)OC(c1ccc(F)cc1)(c1ccc(Cl)cc1Cl)O2)N1CCOCC1 (stereo not given)
label_class: not fulfilled
--
compound: Cc1ccccc1C(c1ccccc1C)N1C2CCC1CC(O)(c1ccccc1)C2 (stereo not given)
label_class: not fulfilled
--
compound: CCCSc1nc(N[C@@H]2C[C@H]2c2ccc(F)c(F)c2)c2nnn([C@@H]3C[C@H](OCCO)[C@@H](O)[C@H]3O)c2n1 [TICAGRELOR]
label_class: fulfilled
--
compound: CNC(=O)Nc1ccc2c(c1)[C@@]1(CC2)OC(=O)N(CC(=O)N(Cc2ccc(F)cc2)[C@@H](C)C(F)(F)F)C1=O [A-486]
label_class: fulfilled
--
compound: O=c1[nH]c2ccccc2n1C1CCN(Cc2ccc(-c3[nH]c4cc5ncnc5cc4nc3-c3ccccc3)cc2)CC1
label_class: fulfilled
--
compound: Cl.O=C(O)c1cc(-c2ccc(C3CCNCC3)cc2)c2ccc(-c3ccc(C(F)(F)F)cc3)cc2c1
label_class: not fulfilled
--
compound: Cc1ccc2c(c1)c1c(n2CCc2ccc(C)nc2)CCN(C)C1 [LATREPIRDINE]
label_class: fulfilled
--
compound: O=c1cc(N2CCOCC2)oc2c(-c3cccc4c3sc3ccccc34)cccc12
label_class: fulfilled
--
compound: CC(C)Oc1ccccc1C(=O)Nc1ccccc1C(=O)Nc1cccc(S(=O)(=O)C(F)(F)F)c1
label_class: not fulfilled
--
compound: COc1ccccc1CN[C@H]1C2CCN(CC2)[C@H]1C(c1ccccc1)c1ccccc1 [CP-96345]
label_class: fulfilled
--
compound: Cc1c[nH]c2nccc(Oc3c(F)cc(Nc4cc(Cl)nc(N)n4)cc3F)c12 [BAY-549]
label_class: not fulfilled
--
compound: C=CC(=O)Nc1cccc(Sc2nc(Nc3ccc(N4CCN(C)CC4)cc3)ncc2Cl)c1
label_class: fulfilled
--
compound: CCc1ccc(OCc2ccccc2C(=O)Nc2ccc3nc(C)cc(N)c3c2)cc1.Cl
label_class: fulfilled
--
compound: CC1=C(C(=O)Nc2cc3cn[nH]c3cc2F)C(c2ccc(C(F)(F)F)cc2)CC(=O)N1 (stereo not given)
label_class: not fulfilled
--
compound: COC(=O)C1=C(C)NC(C)=C(C(=O)OCCCN2CCC(c3ccccc3)(c3ccccc3)CC2)[C@H]1c1cccc([N+](=O)[O-])c1 [NIGULDIPINE]
label_class: fulfilled
--
compound: COc1cc(Nc2nccc(-c3cnn4nc(OC)ccc34)n2)cc(C(F)(F)F)c1
label_class: not fulfilled
--
compound: CC(C)CC(=O)Nc1[nH]nc2c1CN(C(=O)C1CCN(C)CC1)C2(C)C [PHA-793887]
label_class: fulfilled
--
compound: C=CC(=O)Nc1ccc2[nH]c(=O)n(C3CCN(Cc4ccc(-c5nc6cc[nH]c(=O)c6cc5-c5ccccc5)cc4)CC3)c2c1 [Borussertib]
label_class: fulfilled
